test target: p-EGFR L858R (BaF3-L858R cells) (Homo sapiens, UniProt P00533, L858R)
experimental protocol: Cell p-EGFR inhibition assay, HTRF, BaF3-L858R cells
condition parameters: 16 h treatment, pEGFR inhibition
pIC50: −log10 of the molar value.
experimental readout: pIC50

I: Cc1cc2cc(n1)-c1c(C)nn(C)c1OC[C@H]1CC[C@H](C1)CN1/C(=N/C2=O)Nc2ccc(N3C[C@H](C)N(C4CCN(c5cc(F)c([C@H]6CCC(=O)NC6=O)c(F)c5)CC4)C[C@H]3C)cc21
II: COC[C@@H]1CN(c2ccc3c(c2)N2CC4CC[C@H](COc5c(c(C)nn5C)-c5cc(cc(C)n5)C(=O)/N=C/2N3)C4)CCN1C1CCN(c2c(F)cc(NC3CCC(=O)NC3=O)cc2F)CC1 (stereo partly drawn)
Ask | Lower pIC50: I or II ? Mark your selection by writing its label.
Reply | II
(II: 8.54, I: 9.28)

###

test target: p-EGFR Del19/C797S (H1975-clone #23 cells) (Homo sapiens, UniProt P00533)
experimental protocol: Cell p-EGFR inhibition assay, HTRF, H1975-clone#23 (DEL19/C797S) cells
Format: cell-based
condition parameters: 16 h treatment, maximum percentage of pEGFR inhibition
experimental readout: Imax (%)

compound	Imax (%)
Cc1cc2cc(n1)-c1cnn(C)c1OC[C@H]1CCC(C1)CN1/C(=N/C2=O)Nc2ccc(N3CC(N(C)C4CCN(c5cc(F)c([C@H]6CCC(=O)NC6=O)c(F)c5)CC4)C3)cc21	99.6
Cc1cc2cc(n1)-c1c(C)nn(C)c1OC[C@H]1CCC(C1)CN1/C(=N/C2=O)Nc2ccc(N3CCN([C@@H]4CCN(c5cc(F)c(C6CCC(=O)NC6=O)nc5C)C[C@@H]4F)CC3)cc21 (stereo partly shown)	101.1
Cc1cc2cc(n1)-c1cnn(C)c1OC[C@H]1CCC(C1)CN1/C(=N/C2=O)Nc2ccc(N3CCC(CN4CC(Nc5cc(F)c([C@H]6CCC(=O)NC6=O)c(F)c5)C4)CC3)cc21	100.62
COC[C@@H]1CN(c2ccc3c(c2)N2C[C@@H]4CC[C@H](COc5c(cnn5C)-c5cc(cc(C)n5)C(=O)/N=C/2N3)C4)CCN1CC1CN(c2ccc3c(c2)C(=O)N(C2CCC(=O)NC2=O)C3=O)C1 (stereo partly shown)	100.1
Cc1cc2cc(n1)-c1cnn(C)c1OC[C@H]1CCC(C1)CN1/C(=N/C2=O)Nc2ccc(N3CCC4(CC3)CN(C3CCN(c5cc(F)c([C@H]6CCC(=O)NC6=O)c(F)c5)CC3)C4)cc21	99.1
COC[C@H]1CN(c2ccc3c(c2)N2CC4CC[C@H](COc5c(c(C(F)(F)F)nn5C)-c5cc(cc(C)n5)C(=O)/N=C/2N3)C4)CCN1C1CCN(c2cc(F)c([C@H]3CCC(=O)NC3=O)c(F)c2)CC1	101
Cc1cc2cc(n1)-c1cnn(C)c1OC[C@H]1CCC(C1)CN1/C(=N/C2=O)Nc2ccc(N3CCN(C4CCN(c5ccc(NC6CCC(=O)NC6=O)nc5C)CC4)CC3)cc21 (stereo partly shown)	101.3
Cc1cc2cc(n1)-c1cnn(C)c1OC[C@H]1CCC(C1)CN1/C(=N/C2=O)Nc2ccc(N3CCC(N4CCC(Nc5cc(F)c([C@H]6CCC(=O)NC6=O)c(F)c5)CC4)CC3)cc21 (single isomer, unassigned)	99.4
COC[C@H]1CN(c2ccc3c(c2)N2C[C@@H]4CC[C@H](COc5c(c(C)nn5C)-c5cc(cc(C)n5)C(=O)/N=C/2N3)C4)CCN1C1CCN(c2ccc(NC3CCC(=O)NC3=O)cc2C)CC1 (stereo partly shown)	100.67
Cc1cc2cc(n1)-c1c(C)nn(C)c1OC[C@H]1CCC(C1)CN1/C(=N/C2=O)Nc2ccc(N3CCN(CC4CCN(c5cc(F)c([C@H]6CCC(=O)NC6=O)c(F)c5)CC4)[C@H](C)C3)cc21	92.81

###

test target: EGFR L858R (BaF3-L858R cells) (Homo sapiens, UniProt P00533, L858R)
Construct: host or cells: BaF3
experimental protocol: Cell degradation of EGFR, HTRF assay, BaF3-L858R cells
Format: cell-based
condition parameters: 16 h treatment, EGFR degradation
experimental readout: DC50 (nM)

compound	DC50 [nM]
Cc1cc2cc(n1)-c1cnn(C)c1OC[C@H]1CCC(C1)CN1/C(=N/C2=O)Nc2cc(F)c(N3CCN(C4CCN(c5cnc(C6CCC(=O)NC6=O)cc5C)CC4)CC3)cc21 (some centres unmarked) [Example 100]	3.34

A: Cc1cc2cc(n1)-c1cnn(C)c1OC[C@H]1CCC(C1)CN1/C(=N/C2=O)Nc2ccc(N3CCC(CN4CC(Nc5cc(F)c([C@H]6CCC(=O)NC6=O)c(F)c5)C4)CC3)cc21 [Example 132]
B: Cc1cc2cc(n1)-c1cnn(C)c1OC[C@H]1CC[C@H](C1)CN1/C(=N/C2=O)Nc2ccc(N3CCN([C@@H]4CCN(c5cc(F)c(C6CCC(=O)NC6=O)nc5C)C[C@@H]4F)CC3)cc21 (some centres unmarked) [Example 14]
C: Cc1cc2cc(n1)-c1cnn(C)c1OC[C@H]1CCC(C1)CN1/C(=N/C2=O)Nc2ccc(N3CCN(C4CCN(c5c(F)cc(NC6CCC(=O)NC6=O)cc5F)CC4)CC3)cc21 (some centres unmarked) [Example 92]
D: COC[C@@H]1CN(c2ccc3c(c2)N2CC4CC[C@H](COc5c(cnn5C)-c5cc(cc(C)n5)C(=O)/N=C/2N3)C4)CCN1C1CCN(c2c(F)cc(NC3CCC(=O)NC3=O)cc2F)CC1 (some centres unmarked) [Example 93]
Ask | Number of compounds to sort: 4. Sort criterion: DC50, ascending. // format: requested-order list of labels
Reply | B, C, A, D
(B: 0.552 nM, C: 1.97 nM, A: 3.22 nM, D: 9.09 nM)

###

test target: EGFR L858R (BaF3-L858R cells) (Homo sapiens, UniProt P00533, L858R)
Construct: host or cells: BaF3
experimental protocol: Cell degradation of EGFR, HTRF assay, BaF3-L858R cells
Assay type: cell-based
condition parameters: 16 h treatment, EGFR degradation
experimental readout: DC50 (nM)

compound	u	DC50
Cc1cc2cc(n1)-c1cnn(C)c1OC[C@H]1CCC(C1)CN1/C(=N/C2=O)Nc2ccc(N3CCN(CCc4cc(F)c(C5CCC(=O)NC5=O)nc4C)CC3)cc21 (stereo partly shown)	nM	3.68

a: Cc1cc2cc(n1)-c1c(C)nn(C)c1OC[C@H]1CC[C@H](C1)CN1/C(=N/C2=O)Nc2ccc(N3CCN([C@@H]4CCN(c5ccc(OC6CCC(=O)NC6=O)cc5)C[C@@H]4F)CC3)cc21 (stereo partly shown)
b: COC[C@H]1CN(c2ccc3c(c2)N2C[C@@H]4CC[C@H](COc5c(c(C)nn5C)-c5cc(cc(Cl)n5)C(=O)/N=C/2N3)C4)CCN1C1CCN(c2cc(F)c([C@H]3CCC(=O)NC3=O)c(F)c2)CC1
c: COC[C@H]1CN(c2ccc3c(c2)N2C[C@@H]4CC[C@H](COc5c(cnn5C)-c5cc(cc(C)n5)C(=O)/N=C/2N3)C4)CCN1C1CCN(c2cc(F)c([C@H]3CCC(=O)NC3=O)c(F)c2)CC1
Ask | Number of compounds to sort: 3. Sort criterion: DC50, ascending. // format: requested-order list of labels
Reply | c, a, b
(c: 1.07 nM, a: 3.1 nM, b: 8.27 nM)

###

test target: p-EGFR L858R (BaF3-L858R cells) (Homo sapiens, UniProt P00533, L858R)
Construct: host or cells: BaF3
experimental protocol: Cell p-EGFR inhibition assay, HTRF, BaF3-L858R cells
Format: cell-based
condition parameters: 16 h treatment, maximum percentage of pEGFR inhibition
experimental readout: Imax (%)

molecule	u	observed value
Cc1cc2cc(n1)-c1c(C)nn(C)c1OC[C@H]1CC[C@H](C1)CN1/C(=N/C2=O)Nc2ccc(N3CCC(NC4CN(c5c(F)cc(OC6CCC(=O)NC6=O)cc5F)C4)CC3)cc21 (some centres unmarked) [Example 158]	%	95.45
Cc1cc2cc(n1)-c1c(C)nn(C)c1OC[C@H]1CC[C@H](C1)CN1/C(=N/C2=O)Nc2ccc(N3CCN(C4CCN(c5cc(F)c([C@H]6CCC(=O)NC6=O)c(F)c5)CC4)C[C@H]3CF)cc21 [Example 202]	%	92
COC[C@H]1CN(c2ccc3c(c2)N2CC4CC[C@H](COc5c(cnn5C)-c5cc(cc(C)n5)C(=O)/N=C/2N3)C4)CCN1C1CCN(c2cc(F)c(C3CCC(=O)NC3=O)nc2C)CC1 (some centres unmarked) [Example 71]	%	99.7
Cc1cc2cc(n1)-c1cnn(C)c1OC[C@H]1CCC(C1)CN1/C(=N/C2=O)Nc2ccc(N3CCN([C@H]4CCN(c5cc(F)c([C@H]6CCC(=O)NC6=O)c(F)c5)C[C@H]4F)CC3)cc21 (single isomer, unassigned) [Example 84]	%	109.3
Cc1cc2cc(n1)-c1c(C)nn(C)c1OC[C@H]1CC[C@H](C1)CN1/C(=N/C2=O)Nc2ccc(N3CCN(CCC4CCN(c5cc(F)c([C@H]6CCC(=O)NC6=O)c(F)c5)CC4)CC3)cc21 [Example 183]	%	98.21
